assay.explanation: Solubility of Form A in various solvents at 25° C. and 50° C.
Format: physicochemical
test.conditions: sesame oil, 25 °C, oil or lipid, thermodynamic from solid; read-out: Solubility at 25° C.
value.type: solubility (µg/mL)
Answer with a number only, understood to be in µg/mL.

The compound listed as C[C@@H](N)C1CCN(S(=O)(=O)c2cccc3cnccc23)CC1 [NRL-1049 (R)] shows solubility equal to 40

###

assay.explanation: Solubility of Form A in various solvents at 25° C. and 50° C.
Assay type: physicochemical
test.conditions: ethanol, 25 °C, organic solvent or mixture, thermodynamic from solid; read-out: Solubility at 25° C.
value.type: solubility (mg/mL)
Please give a number only; it is taken to be in mg/mL.

// solubility value for C[C@@H](N)C1CCN(S(=O)(=O)c2cccc3cnccc23)CC1 [NRL-1049 (R)] : 12.3

###

assay.explanation: Solubility of Form A in various solvents at 25° C. and 50° C.
Type: physicochemical
test.conditions: medium chain triglyceride, 25 °C, oil or lipid, thermodynamic from solid; read-out: Solubility at 25° C.
value.type: solubility
Number first, unit second: that is the form wanted.

Measured solubility, C[C@@H](N)C1CCN(S(=O)(=O)c2cccc3cnccc23)CC1 [NRL-1049 (R)] : 100 µg/mL

###

assay.explanation: Solubility of Form A in various solvents at 25° C. and 50° C.
Type: physicochemical
test.conditions: n-propanol, 50 °C, organic solvent or mixture, thermodynamic from solid; read-out: Solubility at 50° C.
value.type: solubility (mg/mL)
Give your result in mg/mL as a bare value.

solubility in this record for C[C@@H](N)C1CCN(S(=O)(=O)c2cccc3cnccc23)CC1 [NRL-1049 (R)] : 23.4

###

assay.explanation: Solubility of Form A in various solvents at 25° C. and 50° C.
Format: physicochemical
test.conditions: water, 25 °C, water, thermodynamic from solid; read-out: Solubility at 25° C.
value.type: solubility

Recorded solubility (molecule C[C@@H](N)C1CCN(S(=O)(=O)c2cccc3cnccc23)CC1 [NRL-1049 (R)] ): > 50 mg/mL

###

assay.explanation: Solubility of Form A in various solvents at 25° C. and 50° C.
Type: physicochemical
test.conditions: dimethyl sulfoxide, 50 °C, organic solvent or mixture, thermodynamic from solid; read-out: Solubility at 50° C.
value.type: solubility

Recorded solubility (compound C[C@@H](N)C1CCN(S(=O)(=O)c2cccc3cnccc23)CC1 [NRL-1049 (R)] ): > 50 mg/mL

###

assay.explanation: Solubility of Form A in various solvents at 25° C. and 50° C.
Format: physicochemical
test.conditions: 2-methoxyethanol, 25 °C, organic solvent or mixture, thermodynamic from solid; read-out: Solubility at 25° C.
value.type: solubility

// C[C@@H](N)C1CCN(S(=O)(=O)c2cccc3cnccc23)CC1 [NRL-1049 (R)] : solubility value = > 50 mg/mL

###

assay.explanation: Solubility of Form A in various solvents at 25° C. and 50° C.
Type: physicochemical
test.conditions: chloroform, 50 °C, organic solvent or mixture, thermodynamic from solid; read-out: Solubility at 50° C.
value.type: solubility

In plain terms, C[C@@H](N)C1CCN(S(=O)(=O)c2cccc3cnccc23)CC1 [NRL-1049 (R)] has a documented solubility of > 50 mg/mL

###

assay.explanation: Solubility of Form A in various solvents at 25° C. and 50° C.
Type: physicochemical
test.conditions: iso-butyl acetate, 50 °C, organic solvent or mixture, thermodynamic from solid; read-out: Solubility at 50° C.
value.type: solubility

Entry C[C@@H](N)C1CCN(S(=O)(=O)c2cccc3cnccc23)CC1 [NRL-1049 (R)] — recorded solubility = < 1000 µg/mL

###

assay.explanation: Solubility of Form A in various solvents at 25° C. and 50° C.
Assay type: physicochemical
test.conditions: acetone, 50 °C, organic solvent or mixture, thermodynamic from solid; read-out: Solubility at 50° C.
value.type: solubility (mg/mL)
Just the number in mg/mL, nothing appended.

Recorded solubility (compound C[C@@H](N)C1CCN(S(=O)(=O)c2cccc3cnccc23)CC1 [NRL-1049 (R)] ): 45.3

###

assay.explanation: Solubility of Form A in various solvents at 25° C. and 50° C.
Type: physicochemical
test.conditions: ethyl acetate, 25 °C, organic solvent or mixture, thermodynamic from solid; read-out: Solubility at 25° C.
value.type: solubility

response.value for C[C@@H](N)C1CCN(S(=O)(=O)c2cccc3cnccc23)CC1 [NRL-1049 (R)] (field: solubility) = < 1000 µg/mL

###

assay.explanation: Solubility of Form A in various solvents at 25° C. and 50° C.
Assay type: physicochemical
test.conditions: water, 50 °C, water, thermodynamic from solid; read-out: Solubility at 50° C.
value.type: solubility

// solubility value for C[C@@H](N)C1CCN(S(=O)(=O)c2cccc3cnccc23)CC1 [NRL-1049 (R)] : > 50 mg/mL

###

assay.explanation: Solubility of Form A in various solvents at 25° C. and 50° C.
Assay type: physicochemical
test.conditions: chloroform, 25 °C, organic solvent or mixture, thermodynamic from solid; read-out: Solubility at 25° C.
value.type: solubility

C[C@@H](N)C1CCN(S(=O)(=O)c2cccc3cnccc23)CC1 [NRL-1049 (R)] yielded solubility of > 50 mg/mL

###

assay.explanation: Solubility of Form A in various solvents at 25° C. and 50° C.
Assay type: physicochemical
test.conditions: n-butyl alcohol, 50 °C, organic solvent or mixture, thermodynamic from solid; read-out: Solubility at 50° C.
value.type: solubility (µg/mL)
Your answer is read as µg/mL, so omit the unit and give the number.

Kindly note the recorded solubility for C[C@@H](N)C1CCN(S(=O)(=O)c2cccc3cnccc23)CC1 [NRL-1049 (R)] , which is 7500

###

assay.explanation: Solubility of Form A in various solvents at 25° C. and 50° C.
Assay type: physicochemical
test.conditions: toluene, 50 °C, organic solvent or mixture, thermodynamic from solid; read-out: Solubility at 50° C.
value.type: solubility

# solubility of C[C@@H](N)C1CCN(S(=O)(=O)c2cccc3cnccc23)CC1 [NRL-1049 (R)] = < 1000 µg/mL

###

assay.explanation: Solubility of Form A in various solvents at 25° C. and 50° C.
Type: physicochemical
test.conditions: ethyl formate, 50 °C, organic solvent or mixture, thermodynamic from solid; read-out: Solubility at 50° C.
value.type: solubility

Per the record, C[C@@H](N)C1CCN(S(=O)(=O)c2cccc3cnccc23)CC1 [NRL-1049 (R)] has solubility of > 50 mg/mL

###

assay.explanation: Solubility of Form A in various solvents at 25° C. and 50° C.
Type: physicochemical
test.conditions: n-propanol, 25 °C, organic solvent or mixture, thermodynamic from solid; read-out: Solubility at 25° C.
value.type: solubility (µg/mL)
Provide the reading as a plain figure in µg/mL.

Measured solubility of C[C@@H](N)C1CCN(S(=O)(=O)c2cccc3cnccc23)CC1 [NRL-1049 (R)] : 1600

###

assay.explanation: Solubility of Form A in various solvents at 25° C. and 50° C.
Assay type: physicochemical
test.conditions: methyl iso-butyl ketone, 50 °C, organic solvent or mixture, thermodynamic from solid; read-out: Solubility at 50° C.
value.type: solubility

For this compound ( C[C@@H](N)C1CCN(S(=O)(=O)c2cccc3cnccc23)CC1 [NRL-1049 (R)] ), measured solubility is < 1000 µg/mL

###

assay.explanation: Solubility of Form A in various solvents at 25° C. and 50° C.
Assay type: physicochemical
test.conditions: o-xylene, 25 °C, organic solvent or mixture, thermodynamic from solid; read-out: Solubility at 25° C.
value.type: solubility

solubility in this record for C[C@@H](N)C1CCN(S(=O)(=O)c2cccc3cnccc23)CC1 [NRL-1049 (R)] : < 1000 µg/mL

###

assay.explanation: Solubility of Form A in various solvents at 25° C. and 50° C.
Assay type: physicochemical
test.conditions: acetone, 25 °C, organic solvent or mixture, thermodynamic from solid; read-out: Solubility at 25° C.
value.type: solubility
Entry format: amount then unit.

solubility for C[C@@H](N)C1CCN(S(=O)(=O)c2cccc3cnccc23)CC1 [NRL-1049 (R)] is 15.9 mg/mL

###

assay.explanation: Solubility of Form A in various solvents at 25° C. and 50° C.
Format: physicochemical
test.conditions: dichloromethane, 25 °C, organic solvent or mixture, thermodynamic from solid; read-out: Solubility at 25° C.
value.type: solubility

So, C[C@@H](N)C1CCN(S(=O)(=O)c2cccc3cnccc23)CC1 [NRL-1049 (R)] ? Its solubility was < 1000 µg/mL

###

assay.explanation: Solubility of Form A in various solvents at 25° C. and 50° C.
Assay type: physicochemical
test.conditions: benzyl alcohol, 25 °C, organic solvent or mixture, thermodynamic from solid; read-out: Solubility at 25° C.
value.type: solubility (mg/mL)
Kindly answer with a numeric value in mg/mL, unit omitted.

Short answer for C[C@@H](N)C1CCN(S(=O)(=O)c2cccc3cnccc23)CC1 [NRL-1049 (R)] : solubility was 156

Numbers sourced from patent US20230399311A1.
